# Target under test: 5-hydroxytryptamine receptor 1E (Homo sapiens)
# Sequence (P28566 whole entry): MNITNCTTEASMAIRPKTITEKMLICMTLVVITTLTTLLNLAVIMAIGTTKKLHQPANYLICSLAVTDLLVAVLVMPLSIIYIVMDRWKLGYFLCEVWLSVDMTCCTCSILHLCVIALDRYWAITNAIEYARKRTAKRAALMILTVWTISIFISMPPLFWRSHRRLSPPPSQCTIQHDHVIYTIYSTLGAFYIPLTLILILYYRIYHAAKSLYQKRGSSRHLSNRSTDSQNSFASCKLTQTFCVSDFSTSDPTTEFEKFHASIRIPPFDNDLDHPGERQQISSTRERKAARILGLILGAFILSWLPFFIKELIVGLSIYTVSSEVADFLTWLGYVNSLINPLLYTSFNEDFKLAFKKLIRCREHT
Measured metric: Ki (µM)
Report as a plain number; the unit µM is understood.

Query string: Fill in reported Ki for this entry: CC(N)Cc1c[nH]c2ccc(OCc3cccs3)cc12 (stereo unspecified)
Result string: 3.16

###

# Target under test: UniProt Q62758
# Sequence (Q62758 whole entry): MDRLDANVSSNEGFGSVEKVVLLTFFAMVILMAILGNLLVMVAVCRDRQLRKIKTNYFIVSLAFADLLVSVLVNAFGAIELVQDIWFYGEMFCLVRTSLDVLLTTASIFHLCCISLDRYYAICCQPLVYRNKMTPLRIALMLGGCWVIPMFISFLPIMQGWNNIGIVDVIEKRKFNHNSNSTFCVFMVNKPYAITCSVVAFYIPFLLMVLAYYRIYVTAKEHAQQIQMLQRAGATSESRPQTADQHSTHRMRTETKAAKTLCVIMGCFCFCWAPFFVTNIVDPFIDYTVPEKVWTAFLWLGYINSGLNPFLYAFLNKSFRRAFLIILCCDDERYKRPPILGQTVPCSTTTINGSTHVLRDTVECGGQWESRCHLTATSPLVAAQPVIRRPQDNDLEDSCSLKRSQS
pKi: −log10 of the molar value.
Measured metric: pKi

Query string: Look up and report measured pKi for this entry: CC(N)Cc1c[nH]c2ccc(OCc3cccs3)cc12 (stereo unspecified)
Result string: < 5.00

###

# Target under test: Beta-2 adrenergic receptor (Mus musculus, UniProt P18762)
# Sequence (P18762 whole entry): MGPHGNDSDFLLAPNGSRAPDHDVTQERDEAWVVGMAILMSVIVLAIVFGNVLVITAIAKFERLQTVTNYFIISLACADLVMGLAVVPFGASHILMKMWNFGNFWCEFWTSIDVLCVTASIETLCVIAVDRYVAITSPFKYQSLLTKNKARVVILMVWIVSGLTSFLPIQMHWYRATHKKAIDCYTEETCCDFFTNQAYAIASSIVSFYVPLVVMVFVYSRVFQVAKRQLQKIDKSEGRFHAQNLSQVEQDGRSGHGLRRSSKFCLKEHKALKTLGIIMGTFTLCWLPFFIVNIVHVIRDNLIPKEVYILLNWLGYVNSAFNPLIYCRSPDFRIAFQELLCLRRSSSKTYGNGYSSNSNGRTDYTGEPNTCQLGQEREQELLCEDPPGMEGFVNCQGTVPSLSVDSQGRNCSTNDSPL
pKi: −log10 of the molar value.
Measured metric: pKi

Query string: // Input: CC(N)Cc1c[nH]c2ccc(OCc3cccs3)cc12 (stereo unspecified) . Output its pKi only.
Result string: < 5.00

###

# Target under test: 5-hydroxytryptamine receptor 1F (Homo sapiens, UniProt P30939)
# Sequence (P30939 whole entry): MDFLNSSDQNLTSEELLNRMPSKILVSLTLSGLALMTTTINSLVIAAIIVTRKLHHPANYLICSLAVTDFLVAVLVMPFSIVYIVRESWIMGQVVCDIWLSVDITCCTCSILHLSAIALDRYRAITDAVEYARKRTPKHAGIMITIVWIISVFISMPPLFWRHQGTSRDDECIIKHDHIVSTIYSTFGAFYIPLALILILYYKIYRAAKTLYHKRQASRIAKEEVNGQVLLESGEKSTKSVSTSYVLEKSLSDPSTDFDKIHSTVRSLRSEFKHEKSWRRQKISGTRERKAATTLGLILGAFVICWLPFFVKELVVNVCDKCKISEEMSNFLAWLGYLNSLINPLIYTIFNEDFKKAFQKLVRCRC
Measured metric: pKi
Note on pKi: it is the negative log10 of concentration, concentration in mol/L.

Query string: Write pKi of CC(N)Cc1c[nH]c2ccc(OCc3cccs3)cc12 (stereo unspecified) ; system used: 5-hydroxytryptamine receptor 1F (Homo sapiens, UniProt P30939)
Result string: 5.10

###

# Target under test: D(4) dopamine receptor (Homo sapiens)
# Sequence (P21917 whole entry): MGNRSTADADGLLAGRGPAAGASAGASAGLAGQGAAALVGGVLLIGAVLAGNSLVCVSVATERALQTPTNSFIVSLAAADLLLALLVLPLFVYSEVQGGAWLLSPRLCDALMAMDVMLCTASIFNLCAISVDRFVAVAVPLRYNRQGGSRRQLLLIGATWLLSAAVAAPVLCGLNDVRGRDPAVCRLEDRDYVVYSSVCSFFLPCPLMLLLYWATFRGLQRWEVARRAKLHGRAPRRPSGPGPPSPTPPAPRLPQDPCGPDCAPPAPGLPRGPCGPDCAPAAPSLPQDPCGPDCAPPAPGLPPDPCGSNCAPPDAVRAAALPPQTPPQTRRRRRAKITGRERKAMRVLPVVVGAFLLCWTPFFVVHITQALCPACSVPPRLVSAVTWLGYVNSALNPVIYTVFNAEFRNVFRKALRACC
Measured metric: Ki

Query string: Provide Ki, tested on D(4) dopamine receptor (Homo sapiens), for CC(N)Cc1c[nH]c2ccc(OCc3cccs3)cc12 (stereo unspecified) .
Result string: > 10 µM

###

# Target under test: UniProtKB P34969
# Sequence (P34969 whole entry): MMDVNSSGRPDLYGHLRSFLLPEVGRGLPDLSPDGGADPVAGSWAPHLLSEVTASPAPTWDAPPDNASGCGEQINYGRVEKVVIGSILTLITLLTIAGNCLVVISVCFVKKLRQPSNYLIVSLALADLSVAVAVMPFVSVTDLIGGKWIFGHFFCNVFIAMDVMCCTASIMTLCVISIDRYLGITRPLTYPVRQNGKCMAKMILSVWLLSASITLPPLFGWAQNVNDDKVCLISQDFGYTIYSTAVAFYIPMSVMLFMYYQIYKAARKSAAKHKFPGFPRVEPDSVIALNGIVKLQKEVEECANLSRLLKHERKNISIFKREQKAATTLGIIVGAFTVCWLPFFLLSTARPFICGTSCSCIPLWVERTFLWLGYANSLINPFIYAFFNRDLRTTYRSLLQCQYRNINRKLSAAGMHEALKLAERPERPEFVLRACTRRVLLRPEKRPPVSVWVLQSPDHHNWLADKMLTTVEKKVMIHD
Measured metric: Ki (µM)
Write the value in µM as a bare number.

Query string: Tell me measured Ki for CC(N)Cc1c[nH]c2ccc(OCc3cccs3)cc12 (stereo unspecified) [NSC_5311036] please.
Result string: 3.16

###

# Target under test: 5-hydroxytryptamine receptor 7 (Rattus norvegicus, UniProt P32305)
# Sequence (P32305 whole entry): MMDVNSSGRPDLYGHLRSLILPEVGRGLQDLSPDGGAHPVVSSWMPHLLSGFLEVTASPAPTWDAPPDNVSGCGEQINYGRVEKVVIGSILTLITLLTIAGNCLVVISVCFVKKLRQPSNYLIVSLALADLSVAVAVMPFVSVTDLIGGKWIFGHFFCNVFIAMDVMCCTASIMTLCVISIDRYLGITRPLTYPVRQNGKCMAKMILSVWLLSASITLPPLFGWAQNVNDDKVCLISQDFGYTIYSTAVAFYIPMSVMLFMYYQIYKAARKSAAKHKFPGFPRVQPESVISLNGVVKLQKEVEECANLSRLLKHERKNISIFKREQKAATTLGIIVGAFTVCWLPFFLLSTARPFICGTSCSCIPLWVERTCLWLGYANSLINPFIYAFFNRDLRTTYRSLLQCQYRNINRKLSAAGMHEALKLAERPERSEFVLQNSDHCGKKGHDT
Measured metric: pKi
# pKi is unitless: minus log10 of the molar concentration; print number only

Query string: Determine its reported pKi: CC(N)Cc1c[nH]c2ccc(OCc3cccs3)cc12 (stereo unspecified) [NSC_5311036]
Result string: 6.00

###

Measured metric: Ki (nM)
The reply should be a number in nM, with the unit left off.

Query string: Give Ki only, for CC(N)Cc1c[nH]c2ccc(OCc3cccs3)cc12 (stereo unspecified) [NSC_5311036] , using 5-hydroxytryptamine receptor 2A (Rattus norvegicus, UniProt P14842) data.
Result string: 251

###

Measured metric: Ki

Query string: Recall the reported Ki of CC(N)Cc1c[nH]c2ccc(OCc3cccs3)cc12 (stereo unspecified) when tested on D(1A) dopamine receptor (Homo sapiens, UniProt P21728).
Sequence (P21728 whole entry): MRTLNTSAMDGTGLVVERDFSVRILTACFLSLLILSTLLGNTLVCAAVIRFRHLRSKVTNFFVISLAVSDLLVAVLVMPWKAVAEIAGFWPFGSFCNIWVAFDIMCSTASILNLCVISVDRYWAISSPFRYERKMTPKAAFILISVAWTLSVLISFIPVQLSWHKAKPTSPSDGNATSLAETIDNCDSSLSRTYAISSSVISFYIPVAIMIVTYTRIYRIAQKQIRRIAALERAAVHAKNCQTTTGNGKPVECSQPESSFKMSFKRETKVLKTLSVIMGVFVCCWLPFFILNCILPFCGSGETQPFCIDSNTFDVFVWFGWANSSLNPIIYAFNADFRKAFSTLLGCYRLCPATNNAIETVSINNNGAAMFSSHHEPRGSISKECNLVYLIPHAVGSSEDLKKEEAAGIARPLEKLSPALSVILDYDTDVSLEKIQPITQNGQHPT
Result string: > 10 µM

###

Measured metric: Ki

Query string: System 5-hydroxytryptamine receptor 3A (Rattus norvegicus, UniProt P35563). Read-out Ki. Item CC(N)Cc1c[nH]c2ccc(OCc3cccs3)cc12 (stereo unspecified) [NSC_5311036] . Report value.
Result string: 316 nM

###

# Target under test: UniProt:Q60533
# Sequence (Q60533 whole entry): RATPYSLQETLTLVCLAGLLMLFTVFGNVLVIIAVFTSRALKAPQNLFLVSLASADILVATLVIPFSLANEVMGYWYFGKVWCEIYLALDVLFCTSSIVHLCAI
pKi: −log10 of the molar value.
Measured metric: pKi

Query string: Query pKi for CC(N)Cc1c[nH]c2ccc(OCc3cccs3)cc12 (stereo unspecified)
Result string: < 5.00

Where these numbers come from: BindingDB's records for doi:10.1111/j.1476-5381.1996.tb15304.x
